substrate: NC(=O)c1ccc[n+]([C@@H]2O[C@H](COP(=O)(O)OP(=O)(O)OC[C@H]3O[C@@H](n4cnc5c(N)ncnc54)[C@H](O)[C@@H]3O)[C@@H](O)[C@H]2O)c1; assay: radiometric HPLC assay, initial rates, Michaelis-Menten fit; assay type: biochemical, Bos taurus; settings: 10 mM potassium phosphate pH 7.4, 37°C, 14C-labelled NAD+ tracer
kcat/Km: recorded values

- PROTEIN: "bCD38 (bovine CD38/NAD+glycohydrolase) (Bos taurus; R216A) (protein, soluble ecto-domain residues 32-278 (first 31 residues removed), alpha-factor secretion signal, Pichia pastoris GS115 or X33, mono-N-glycosylated at Asn201, back-to-back homodimer in crystal) YKWHYSGLNRWHGAGSTADFQKIIQERCDTYTQTIRPGSRSRNCQAIRQAFMSAFISKDPCKATKEDYNSLINLAPPTVPCGQQVFWSKTKELAHEYAKRRRLMTLEDTLLGYLADGLRWCGEPGSSDLNIWSCPDWRKDCRTNYLSVFWEVLSERFAESACNTVRVVLNGSLENAFDSMSIFGAVEAPNLRPQVELEAWLVHDTGKPPSDSCSGSSIRKLKSILDGRNVKFRCMDNLSRDQFLQRS"
  kcat/Km, M⁻¹ s⁻¹: "1.1e+06"
- PROTEIN: "bCD38 (bovine CD38/NAD+glycohydrolase) (Bos taurus) (protein, soluble ecto-domain residues 32-278 (first 31 residues removed), alpha-factor secretion signal, Pichia pastoris GS115 or X33, mono-N-glycosylated at Asn201, back-to-back homodimer in crystal) YKWHYSGLNRWHGAGSTADFQKIIQERCDTYTQTIRPGSRSRNCQAIRQAFMSAFISKDPCKATKEDYNSLINLAPPTVPCGQQVFWSKTKELAHEYAKRRRLMTLEDTLLGYLADGLRWCGEPGSSDLNIWSCPDWRKDCRTNYLSVFWEVLSERFAESACNTVRVVLNGSLENAFDSMSIFGRVEAPNLRPQVELEAWLVHDTGKPPSDSCSGSSIRKLKSILDGRNVKFRCMDNLSRDQFLQRS"
  kcat/Km, M⁻¹ s⁻¹: "3.38e+06"
- PROTEIN: "bCD38 (bovine CD38/NAD+glycohydrolase) (Bos taurus; S185A) (protein, soluble ecto-domain residues 32-278 (first 31 residues removed), alpha-factor secretion signal, Pichia pastoris GS115 or X33, mono-N-glycosylated at Asn201, back-to-back homodimer in crystal) YKWHYSGLNRWHGAGSTADFQKIIQERCDTYTQTIRPGSRSRNCQAIRQAFMSAFISKDPCKATKEDYNSLINLAPPTVPCGQQVFWSKTKELAHEYAKRRRLMTLEDTLLGYLADGLRWCGEPGSSDLNIWSCPDWRKDCRTNYLSVFWEVLAERFAESACNTVRVVLNGSLENAFDSMSIFGRVEAPNLRPQVELEAWLVHDTGKPPSDSCSGSSIRKLKSILDGRNVKFRCMDNLSRDQFLQRS"
  kcat/Km, M⁻¹ s⁻¹: "2.04e+06"

All values here come from paper PMC3329556.
